// reported melting point for each item listed

c1ccc2c(c1)C1CC2(CC2CN(CC3CC3)CCO2)c2ccccc21 (stereo not given); 88 to 90 °C
COc1ccc(-c2cnc[nH]c2=O)cc1OC; 205 to 206 °C
CN1CCN(C(=O)c2cc(S(=O)(=O)NC34CC5CC(CC(C5)C3)C4)ccc2N)CC1; 214 to 215 °C
CN(C(=O)OC(C)(C)C)C1C2CCC1CN(CC(O)COc1ccc(C#N)cc1)C2 (stereo not given); 109 to 112 °C

Output melting point of COC(=O)c1ccccc1S(=O)(=O)NC(=O)Nc1nc(CSc2ccccn2)cc(OC)n1 175 to 181 °C

====

// reported melting point for each item listed

Solved cases (3 shown):
O=C1CCNC(=O)C1C(=O)c1ccc(Cl)c(Cl)c1 (stereo not given); 172 to 174 °C
CCOc1ccc2c(c1)C(c1ccccc1)C(=O)N2 (stereo not given); 125 to 130 °C
COc1ccc(CCCO)cc1OCc1coc(/C=C/c2ccccc2)n1; 126 to 128 °C

Output melting point of CNC(=O)c1cc(C#N)cc(C)c1NC(=O)c1cc(C(F)(F)F)nn1-c1ncccc1Cl 214 to 216 °C

Output melting point of CC1(c2cc(-c3cccc(CC4SC(N5CCCC5)=NC4=O)c3)ccc2O)CCCCC1 (stereo not given) 109 to 110 °C

Output melting point of CCCCCS(=O)(=O)NC(=O)/C=C/c1ccc(OCCOC)cc1Oc1ncc(NC(C)=O)cc1C 188 °C

====

// reported melting point for each item listed

Solved cases (6 shown):
OCCON=Cc1ccc2ccccc2n1; 128 °C
O=C(NC(CS)Cc1ccccc1)N1CCCCCC1 (single isomer, unassigned; (+)); 102 °C
O=C(O)c1c(Cc2cc3c(cc2Cl)OCO3)c(-c2ccccc2)nn1CC1CCCC(C(=O)O)C1 (stereo unspecified); 130 °C
CN(C)c1ccc2c(c1)nc(/C=C/c1ccccc1)n2-c1ccccn1; 170 to 171 °C
C=C1C=Cc2cc(C(=O)Nc3ccccc3)ccc2OC1; 139 °C
CC(=O)Oc1ccc(C=CC(=O)NC2CCc3ccccc32)cc1[N+](=O)[O-] (stereo unspecified); 177 to 178 °C

Output melting point of COc1cccc(CN2N=C(c3ccc(OC)c(OC)c3)[C@@H]3CCCC[C@@H]3C2=O)c1 (relative stereo) 115 °C

====

// reported melting point for each item listed

Solved cases (4 shown):
CC(=O)c1cc2c(s1)S(=O)(=O)CCc1cc(=O)n(-c3ccc(Cl)cc3)nc1-2; 272 to 273 °C
COC(C)C(=O)Nc1c(C(=O)c2ccccc2)[nH]c2cc(Cl)ccc12 (stereo not given); 169 to 171 °C
CCCCN(c1cccc(-c2ccnc3c([N+](=O)[O-])cnn23)c1)S(=O)(=O)c1ccccc1; 159 to 160 °C
COc1cc2nc(-c3n[nH]cc3NC(=O)C3CC3)[nH]c2cc1Cl; 225 to 226 °C

Output melting point of NC(=O)N1CCC(c2nn(-c3ccc(C(F)(F)F)cc3)c3cc(F)ccc23)CC1 148 to 150 °C

====

// reported melting point for each item listed

Solved cases (6 shown):
Cc1noc(C(=O)NC(C)(C)C)c1C(N)=O; 155 to 158 °C
COc1ccc([C@@H]2Cc3c(cccc3C(F)(F)F)N(CC3=NCCN3C(=O)OC(C)(C)C)C(=O)[C@@H]2O)cc1; 116 °C
O=S(=O)(c1ccccc1)N1CCC(C(=NCCc2ccccc2)c2ccc(F)cc2)CC1; 123 to 126 °C
CC1=C(C)c2cc(Br)ccc2Sc2ccccc21; 108 to 111 °C
COc1ccc2cc(S(N)(=O)=O)[nH]c2c1; 171 to 172 °C
CCOc1cccc(-c2ccc(C3CCN(S(=O)(=O)C(C)(C)C(=O)O)CC3)cc2C)n1; 178 to 179 °C

Output melting point of CCOC(=O)Nc1cc([N+](=O)[O-])cc(CC)c1C(=O)O 121 to 123 °C

Output melting point of N#Cc1cc2c(cc1C(F)(F)F)[nH]c(=O)c(=O)n2OCC(=O)O 257 °C

Output melting point of CS(=O)(=O)Nc1c(-c2ccccc2)c(=O)[nH]c2cc(Cl)ccc12 222 to 224 °C

Output melting point of O=C(O)c1sccc1SSc1ccsc1C(=O)O 256 to 257 °C

Output melting point of CC(C)c1cccc(C(C)C)c1NC(=O)CN1CCN(CCSc2nc3ccccc3s2)CC1 170 to 171 °C

Output melting point of CC(C=CCC(C)(O)CO)C1CCC2C(O)CCCC12C (stereo not given) 87 to 88 °C

Output melting point of CS(=O)(=O)c1ccc(-c2[nH]c3ccc(Cl)cc3c2-c2ccccc2Cl)cc1 300 to 302 °C

Output melting point of COC(=O)C(Cc1ccc(OCCN(C)c2nc3ccccc3o2)cc1)OCC(=O)O (stereo not given) 154 to 155 °C

Output melting point of CCOC(=O)c1nn(Cc2ccc(Cl)cc2Cl)c(-c2ccc(Cl)cc2)c1C 82 °C

Output melting point of CON=Cc1nc(Nc2ccccc2)nc(C)c1C 85 to 88 °C

Output melting point of Cc1c(CN(CCc2c(I)c3ccccc3n2C)C(=O)C(F)(F)F)ncn1S(=O)(=O)N(C)C 141 to 143 °C

Output melting point of CN1CC=C(c2c[nH]c(-c3ccc(F)cc3)c2-c2ccncc2)CC1Cc1ccccc1 (stereo not given) 198 to 199 °C

Output melting point of COCOc1c(OC)cc(C=CC(=O)c2c(OC)cc(OC)c(CC=C(C)C)c2O)cc1OC 128 to 129 °C

Output melting point of CCc1cc(Nc2ccc(C(Cc3ccccc3)C(=O)O)cc2)n2nccc2n1 (stereo not given) 195 to 197 °C

====

property_label: melting point

Solved cases (5 shown):
O=C(O)COc1ccc(C(=NO)c2cccs2)c2ccccc12; 215 °C
COC(=O)c1cn2c(C)csc2n1; 170 to 173 °C
O=C(NC(=O)c1c(F)cccc1F)Nc1ccc(OC(F)(F)C(F)F)c(C(F)(F)F)c1; 182 to 185 °C
COc1ccc(-n2c(=O)c(Cl)nc3cccnc32)cc1; > 300 °C
COc1ccc(NC(=O)C(=O)N2CCC(Cc3ccccc3)CC2)cc1; 144 to 146 °C

Output melting point of Fc1ccc(-c2nc(SC(F)(F)C(F)F)[nH]c2-c2cccs2)cc1 164 to 168 °C

Output melting point of CN(C)c1ccc2[nH]c(-c3cc(NC(=O)c4cccc(OCCCCCCC(=O)NO)c4)ccc3Cl)nc2c1 140 to 142 °C

Output melting point of COC(=O)c1ccc(OC)c([N+](=O)[O-])c1O 185 to 187 °C

Output melting point of Cn1ccc2c(NC(=O)c3ccccc3)cccc21 160 °C

Output melting point of N#Cc1ccc(S(=O)(=O)Nc2cccnc2Nc2ccccc2)cc1 155 to 157 °C

Output melting point of CC(C)C(=O)NC(N)=S 114 to 116 °C

Output melting point of CCCCOC(=O)CNC(=O)c1ccc2cc(C(=O)O)[nH]c2c1 267 to 268 °C

Output melting point of COCc1c(CNS(=O)(=O)c2cccc(Cl)c2)nn(-c2ccc(Cl)cc2Cl)c1-c1ccc(Cl)cc1 154 °C

Output melting point of CC(C)OC(=O)c1c(S(C)(=O)=O)ccc(C(=O)O)c1Cl 114 to 118 °C

Output melting point of CC(C)(C)c1nc(/C=C/c2cn(-c3ccccc3)nc2O)cs1 209 to 211 °C

Output melting point of COc1ccc(C(=O)O)c(C)c1C 214 °C

Output melting point of CCC(=O)N[C@H]1CC[C@H](CCN2CCN(c3nccc4c3OCC4)CC2)CC1 196 °C

Output melting point of Cc1cc(N(C)C)cc(C)c1C1OC(C)(C)N=C1c1ccccc1 (configuration not stated) 105 °C

Output melting point of O=C1c2cccc([N+](=O)[O-])c2C(=O)c2cccc(O)c21 299 to 302 °C

Output melting point of O=C(Nc1ccc(N2CCCC2)nc1)c1cc2nc(C(F)(F)F)ccc2n1Cc1cccc(F)c1 219 to 220 °C

Output melting point of O=C(Oc1ccc2c(c1Cl)Sc1ccccc1N2)c1ccccc1 203 °C

Output melting point of Cn1c(Cl)c(C=O)c2cccc(Cl)c21 185 to 187 °C

====

// reported melting point for each item listed

Solved cases (8 shown):
CC1(C)COc2cc(Cl)c(Cl)cc2C(O)(c2ccccn2)C1 (centres undefined); 128 °C
NC(=O)c1sc2nccc(N3CCCN(c4ccccc4)CC3)c2c1N; 215 to 218 °C
CCNC(=O)[C@@H]1C[C@H](SCc2ccc(OC)cc2)CN1; 67 to 68 °C
CC1(C)NC(=O)N(CCC(COc2ccc(-c3ccc(C#N)cc3)cc2)N(O)C=O)C1=O (centres undefined); 202 to 204 °C
COC1CCN2C(=O)c3cccc(NC(=O)Nc4cnc(C)cn4)c3C2C1 (centres undefined); 140 to 142 °C
CN1CCN(CCCNc2ncc3cc(-c4c(Cl)cccc4Cl)c(NC(=O)Nc4cccc5ccccc45)nc3n2)CC1; 186 to 189 °C
COc1cc(C(C)=O)ccc1OCCCCN1CCC(c2n[nH]c3cc(F)ccc23)CC1; 158 to 160 °C
CC(C)COc1c(-c2ccc(S(C)(=O)=O)c(F)c2)cnn(-c2cccc(Cl)c2)c1=O; 180 to 183 °C

Let's switch to this compound now.
Output melting point of CCCCOC(=O)COc1cc(F)ccc1C(=O)NCc1cccc([N+](=O)[O-])c1 80 to 81 °C
